details: in ethyl formate, 288.15 K
measure name: solubility (mole fraction)
// no unit, no text: just the number

input: Any idea what solubility (mole fraction) was measured for O=C1CCCC(=O)C1 ?
output: 0.0109

###

details: in ethyl acetate, 308.15 K
measure name: solubility (mole fraction)

input: Any idea what solubility (mole fraction) was measured for O=C1CCCC(=O)C1 ?
output: 0.0307

###

conditions: in n-propyl acetate, 328.15 K
measure name: solubility (mole fraction)
// no unit, no text: just the number

input: Any idea what solubility (mole fraction) was measured for O=C1CCCC(=O)C1 ?
output: 0.0535

###

settings: in ethyl propionate, 298.15 K
measure name: solubility (mole fraction)
// no unit, no text: just the number

input: Any idea what solubility (mole fraction) was measured for O=C1CCCC(=O)C1 ?
output: 0.017

###

conditions: in chloroform, 298.15 K
measure name: solubility (mole fraction)
// no unit, no text: just the number

input: Any idea what solubility (mole fraction) was measured for O=C1CCCC(=O)C1 ?
output: 0.29

###

conditions: in acetone, 308.15 K
measure name: solubility (mole fraction)
// no unit, no text: just the number

input: Any idea what solubility (mole fraction) was measured for O=C1CCCC(=O)C1 ?
output: 0.132

###

conditions: in n-butyl acetate, 308.15 K
measure name: solubility (mole fraction)
// no unit, no text: just the number

input: Any idea what solubility (mole fraction) was measured for O=C1CCCC(=O)C1 ?
output: 0.0237

###

settings: in acetonitrile, 288.15 K
measure name: solubility (mole fraction)

input: Any idea what solubility (mole fraction) was measured for O=C1CCCC(=O)C1 ?
output: 0.0156

###

settings: in THF, 323.15 K
measure name: solubility (mole fraction)
// no unit, no text: just the number

input: Any idea what solubility (mole fraction) was measured for O=C1CCCC(=O)C1 ?
output: 0.347

###

conditions: in toluene, 318.15 K
measure name: solubility (mole fraction)
// no unit, no text: just the number

input: Any idea what solubility (mole fraction) was measured for O=C1CCCC(=O)C1 ?
output: 0.0106

###

details: in ethyl butyrate, 313.15 K
measure name: solubility (mole fraction)
// no unit, no text: just the number

input: Any idea what solubility (mole fraction) was measured for O=C1CCCC(=O)C1 ?
output: 0.0221

###

details: in THF, 298.15 K
measure name: solubility (mole fraction)
// no unit, no text: just the number

input: Any idea what solubility (mole fraction) was measured for O=C1CCCC(=O)C1 ?
output: 0.135

###

settings: in ethyl butyrate, 293.15 K
measure name: solubility (mole fraction)
// no unit, no text: just the number

input: Any idea what solubility (mole fraction) was measured for O=C1CCCC(=O)C1 ?
output: 0.0103

###

conditions: in n-butyl acetate, 313.15 K
measure name: solubility (mole fraction)
// no unit, no text: just the number

input: Any idea what solubility (mole fraction) was measured for O=C1CCCC(=O)C1 ?
output: 0.0282

###

details: in toluene, 293.15 K
measure name: solubility (mole fraction)
// no unit, no text: just the number

input: Any idea what solubility (mole fraction) was measured for O=C1CCCC(=O)C1 ?
output: 0.00244

###

details: in methyl acetate, 323.15 K
measure name: solubility (mole fraction)

input: Any idea what solubility (mole fraction) was measured for O=C1CCCC(=O)C1 ?
output: 0.0886

###

details: in THF, 313.15 K
measure name: solubility (mole fraction)
// no unit, no text: just the number

input: Any idea what solubility (mole fraction) was measured for O=C1CCCC(=O)C1 ?
output: 0.246

###

settings: in methyl acetate, 293.15 K
measure name: solubility (mole fraction)
// no unit, no text: just the number

input: Any idea what solubility (mole fraction) was measured for O=C1CCCC(=O)C1 ?
output: 0.02

###

settings: in ethyl butyrate, 318.15 K
measure name: solubility (mole fraction)
// no unit, no text: just the number

input: Any idea what solubility (mole fraction) was measured for O=C1CCCC(=O)C1 ?
output: 0.0266

###

conditions: in ethyl acetate, 318.15 K
measure name: solubility (mole fraction)
// no unit, no text: just the number

input: Any idea what solubility (mole fraction) was measured for O=C1CCCC(=O)C1 ?
output: 0.0515

###

settings: in n-propyl acetate, 308.15 K
measure name: solubility (mole fraction)
// no unit, no text: just the number

input: Any idea what solubility (mole fraction) was measured for O=C1CCCC(=O)C1 ?
output: 0.0263

###

conditions: in acetone, 313.15 K
measure name: solubility (mole fraction)
// no unit, no text: just the number

input: Any idea what solubility (mole fraction) was measured for O=C1CCCC(=O)C1 ?
output: 0.173

###

settings: in 2-butanone, 293.15 K
measure name: solubility (mole fraction)

input: Any idea what solubility (mole fraction) was measured for O=C1CCCC(=O)C1 ?
output: 0.0355

###

conditions: in ethyl formate, 293.15 K
measure name: solubility (mole fraction)
// no unit, no text: just the number

input: Any idea what solubility (mole fraction) was measured for O=C1CCCC(=O)C1 ?
output: 0.0141

###

conditions: in methyl acetate, 298.15 K
measure name: solubility (mole fraction)
// no unit, no text: just the number

input: Any idea what solubility (mole fraction) was measured for O=C1CCCC(=O)C1 ?
output: 0.0247

###

conditions: in chloroform, 328.15 K
measure name: solubility (mole fraction)

input: Any idea what solubility (mole fraction) was measured for O=C1CCCC(=O)C1 ?
output: 0.505

###

settings: in chloroform, 288.15 K
measure name: solubility (mole fraction)
// no unit, no text: just the number

input: Any idea what solubility (mole fraction) was measured for O=C1CCCC(=O)C1 ?
output: 0.238

###

details: in 2-butanone, 298.15 K
measure name: solubility (mole fraction)
// no unit, no text: just the number

input: Any idea what solubility (mole fraction) was measured for O=C1CCCC(=O)C1 ?
output: 0.0534

###

details: in acetonitrile, 308.15 K
measure name: solubility (mole fraction)
// no unit, no text: just the number

input: Any idea what solubility (mole fraction) was measured for O=C1CCCC(=O)C1 ?
output: 0.044

###

conditions: in ethyl butyrate, 323.15 K
measure name: solubility (mole fraction)
// no unit, no text: just the number

input: Any idea what solubility (mole fraction) was measured for O=C1CCCC(=O)C1 ?
output: 0.0322

###

conditions: in acetonitrile, 318.15 K
measure name: solubility (mole fraction)
// no unit, no text: just the number

input: Any idea what solubility (mole fraction) was measured for O=C1CCCC(=O)C1 ?
output: 0.0685

###

details: in ethyl formate, 298.15 K
measure name: solubility (mole fraction)
// no unit, no text: just the number

input: Any idea what solubility (mole fraction) was measured for O=C1CCCC(=O)C1 ?
output: 0.0182

###

conditions: in ethyl formate, 328.15 K
measure name: solubility (mole fraction)
// no unit, no text: just the number

input: Any idea what solubility (mole fraction) was measured for O=C1CCCC(=O)C1 ?
output: 0.0694

###

conditions: in THF, 303.15 K
measure name: solubility (mole fraction)
// no unit, no text: just the number

input: Any idea what solubility (mole fraction) was measured for O=C1CCCC(=O)C1 ?
output: 0.164

###

details: in methyl acetate, 313.15 K
measure name: solubility (mole fraction)

input: Any idea what solubility (mole fraction) was measured for O=C1CCCC(=O)C1 ?
output: 0.0524

###

conditions: in n-butyl acetate, 298.15 K
measure name: solubility (mole fraction)
// no unit, no text: just the number

input: Any idea what solubility (mole fraction) was measured for O=C1CCCC(=O)C1 ?
output: 0.0168

###

details: in acetonitrile, 293.15 K
measure name: solubility (mole fraction)
// no unit, no text: just the number

input: Any idea what solubility (mole fraction) was measured for O=C1CCCC(=O)C1 ?
output: 0.0198

###

details: in ethyl propionate, 323.15 K
measure name: solubility (mole fraction)

input: Any idea what solubility (mole fraction) was measured for O=C1CCCC(=O)C1 ?
output: 0.041

###

conditions: in acetone, 328.15 K
measure name: solubility (mole fraction)
// no unit, no text: just the number

input: Any idea what solubility (mole fraction) was measured for O=C1CCCC(=O)C1 ?
output: 0.282

###

details: in acetonitrile, 328.15 K
measure name: solubility (mole fraction)

input: Any idea what solubility (mole fraction) was measured for O=C1CCCC(=O)C1 ?
output: 0.113

###

conditions: in toluene, 328.15 K
measure name: solubility (mole fraction)
// no unit, no text: just the number

input: Any idea what solubility (mole fraction) was measured for O=C1CCCC(=O)C1 ?
output: 0.0165

###

conditions: in THF, 318.15 K
measure name: solubility (mole fraction)
// no unit, no text: just the number

input: Any idea what solubility (mole fraction) was measured for O=C1CCCC(=O)C1 ?
output: 0.307

###

details: in ethyl propionate, 318.15 K
measure name: solubility (mole fraction)
// no unit, no text: just the number

input: Any idea what solubility (mole fraction) was measured for O=C1CCCC(=O)C1 ?
output: 0.0353
